- tgt: human recombinant adrenergic α2B receptor (Homo sapiens, UniProt P18089)
- Construct: expressed in transfected cells; host or cells: CHO-K1
- Sequence (P18089 whole entry): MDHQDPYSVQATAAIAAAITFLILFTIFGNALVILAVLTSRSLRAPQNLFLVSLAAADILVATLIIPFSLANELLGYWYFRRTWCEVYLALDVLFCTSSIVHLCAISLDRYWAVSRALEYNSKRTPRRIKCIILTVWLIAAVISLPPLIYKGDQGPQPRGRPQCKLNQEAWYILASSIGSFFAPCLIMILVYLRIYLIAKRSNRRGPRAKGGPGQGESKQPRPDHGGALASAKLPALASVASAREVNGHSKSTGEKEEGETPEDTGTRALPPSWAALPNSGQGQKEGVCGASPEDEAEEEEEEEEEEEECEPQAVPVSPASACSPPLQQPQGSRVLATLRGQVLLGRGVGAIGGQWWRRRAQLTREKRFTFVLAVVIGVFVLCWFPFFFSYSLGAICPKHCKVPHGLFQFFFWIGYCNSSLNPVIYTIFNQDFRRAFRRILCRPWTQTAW
- assay.overview: Radioligand binding, adrenergic α2B ([3H]Rauwolscine)
- condition.label: compound at 0.03 μM; [3H]Rauwolscine; repeat datapoints each shown; 0.03 µM
parameter.measured: Percentage inhibition of ligand binding, Adrenergic α2B (0.03 μM) (%)

Reference set (3 entries):
1. Cc1cnc2c(c1)c1c(n2CC(C)(O)c2ccc(C)nc2)CCN2CCCC12 (single isomer, unassigned) [148c] = 16
2. Cc1ccc2c(c1)c1c(n2CC(O)c2ccncc2Cl)CCN(C)C1 (single isomer, unassigned) [135b] = 68
3. Cc1cnc2c(c1)c1c(n2CC(O)c2ccncc2)CCN2CCCC12 (single isomer, unassigned) [IV-209a] = 72

1. CC(O)(Cn1c2c(c3cc(Cl)cnc31)C1CCCN1CC2)c1cccnc1 (single isomer, unassigned) [IV-210c]
2. Cc1ccc2c(c1)c1c(n2CC(C)(O)c2ccc(C(N)=O)nc2)CCN(C)C1 (single isomer, unassigned) [II-136b]
Parameter check: reported Percentage inhibition of ligand binding, Adrenergic α2B (0.03 μM) is higher for which label, 1 or 2 ? Give the chosen item's label as your response. 2
(2: 32%, 1: 10%)

A. Cc1cnc2c(c1)c1c(n2CC(O)c2ccncc2)CCN2CCCC12 (single isomer, unassigned) [IV-209d]
B. Cc1cnc2c(c1)c1c(n2CC(N)c2ccc(C#N)cc2)CCN(C)C1 (single isomer, unassigned) [159b]
C. Cc1cnc2c(c1)c1c(n2CC(O)c2ccc(F)cc2)CCN(C)C1 (single isomer, unassigned) [136a]
Put the items in order so that reported Percentage inhibition of ligand binding, Adrenergic α2B (0.03 μM) rises from first to last. # format: label list in the order the request specifies C, B, A

A. Cc1ccc2c(c1)c1c(n2CC(O)c2ccc(F)cc2)CCN2CCCC12 (single isomer, unassigned) [II-120b]
B. Cc1cnc2c(c1)c1c(n2CC(C)(O)c2ccc(F)cc2)CCN(C)C1 (single isomer, unassigned) [138a]
I would appreciate it if you could say which entry, A or B , has the lower Percentage inhibition of ligand binding, Adrenergic α2B (0.03 μM) value. Give the chosen item's label as your response. B
(B: 63%, A: 98%)
